Entry source: paper PMC5700166

- target.or.system: GST-Nv-NF-kB (Ser allele) (Nematostella vectensis, UniProt A7UNT2 2-411)
- Sequence: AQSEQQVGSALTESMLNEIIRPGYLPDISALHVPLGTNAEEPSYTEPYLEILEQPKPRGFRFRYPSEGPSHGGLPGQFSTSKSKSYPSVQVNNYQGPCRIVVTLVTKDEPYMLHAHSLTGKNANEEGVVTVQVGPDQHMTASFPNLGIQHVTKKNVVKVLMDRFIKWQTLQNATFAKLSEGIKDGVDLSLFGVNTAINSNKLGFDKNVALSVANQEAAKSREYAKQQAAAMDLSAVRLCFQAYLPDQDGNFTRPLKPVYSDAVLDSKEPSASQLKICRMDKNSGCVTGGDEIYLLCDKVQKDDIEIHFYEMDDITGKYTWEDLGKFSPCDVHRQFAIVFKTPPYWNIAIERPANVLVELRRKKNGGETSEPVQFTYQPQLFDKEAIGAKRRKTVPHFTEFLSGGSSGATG
- protocol: protein-binding microarray (PBM); PBM: ~300 nM protein, 6 mM HEPES pH 7.8, 80 mM KCl, 0.5 mM EDTA, 0.5 mM EGTA, 6% glycerol, 35 ng/ul poly-dIdC, 1% milk, 1 h, room temperature; high values mean tight binding
- setup.conditions: dsDNA, one strand shown
For each of the sequences below, state its binding signal.
Give bare numbers, in z-score.

Would you mind listing binding signal for each of the following sequences?
1. CCGATTAACATCAGAAAATCCCCTGATGTTAATCGGGTCTTGATTCGCTTGACGCTGCTG
2. CCGATTAACATCACGTTTCCCCCTGATGTTAATCGGGTCTTGATTCGCTTGACGCTGCTG
3. CCGATTAACATCAAGTTTTTCCCTGATGTTAATCGGGTCTTGATTCGCTTGACGCTGCTG
4. CCGATTAACATCAGGAATTTCCCTGATGTTAATCGGGTCTTGATTCGCTTGACGCTGCTG

13.8
9.03
7.41
6.94

====

- target.or.system: GST-Hu-p50 (Homo sapiens, UniProt P19838 7-356)
- Sequence (P19838 7-356): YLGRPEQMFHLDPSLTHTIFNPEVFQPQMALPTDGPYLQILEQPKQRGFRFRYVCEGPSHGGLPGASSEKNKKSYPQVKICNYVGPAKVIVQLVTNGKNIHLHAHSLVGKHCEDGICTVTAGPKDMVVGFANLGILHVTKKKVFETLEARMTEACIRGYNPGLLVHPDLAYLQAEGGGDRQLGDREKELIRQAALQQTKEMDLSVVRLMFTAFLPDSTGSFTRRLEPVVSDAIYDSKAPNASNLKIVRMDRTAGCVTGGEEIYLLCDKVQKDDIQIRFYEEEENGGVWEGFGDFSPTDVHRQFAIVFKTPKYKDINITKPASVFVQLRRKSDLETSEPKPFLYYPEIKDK
- protocol: protein-binding microarray (PBM); PBM: ~300 nM protein, 6 mM HEPES pH 7.8, 80 mM KCl, 0.5 mM EDTA, 0.5 mM EGTA, 6% glycerol, 35 ng/ul poly-dIdC, 1% milk, 1 h, room temperature; high values mean tight binding
- setup.conditions: dsDNA, one strand shown
experimental.readout: binding signal

A selection of reference data follows.
input.sequence	experimental.readout	val
CCGATTAACATCAGGATAACCCCTGATGTTAATCGGGTCTTGATTCGCTTGACGCTGCTG	binding signal	3.08 z-score
CCGATTAACATCAGGGGAACCCATGATGTTAATCGGGTCTTGATTCGCTTGACGCTGCTG	binding signal	4.58 z-score
CCGATTAACATCATGATATCCGGTGATGTTAATCGGGTCTTGATTCGCTTGACGCTGCTG	binding signal	1.11 z-score
CCGATTAACATCAGAAACCCCCATGATGTTAATCGGGTCTTGATTCGCTTGACGCTGCTG	binding signal	6.52 z-score
CCGATTAACATCAAAGTTTCCCATGATGTTAATCGGGTCTTGATTCGCTTGACGCTGCTG	binding signal	3.28 z-score

Would you mind listing binding signal for each of the following sequences?
1. CCGATTAACATCAGAAAGTTCCCTGATGTTAATCGGGTCTTGATTCGCTTGACGCTGCTG
2. CCGATTAACATCAGGATAGCCCCTGATGTTAATCGGGTCTTGATTCGCTTGACGCTGCTG
3. CCGATTAACATCAAAGCATCCCCTGATGTTAATCGGGTCTTGATTCGCTTGACGCTGCTG

1. 4.18 z-score
2. 3.65 z-score
3. 4.58 z-score

Which value of binding signal has been reported for CCGATTAACATCAAACATTCCCTTGATGTTAATCGGGTCTTGATTCGCTTGACGCTGCTG in the records? 3.27 z-score

====

- target.or.system: GST-Co-NF-kB (Capsaspora owczarzaki, UniProt F1ARL5 200-546)
- Sequence: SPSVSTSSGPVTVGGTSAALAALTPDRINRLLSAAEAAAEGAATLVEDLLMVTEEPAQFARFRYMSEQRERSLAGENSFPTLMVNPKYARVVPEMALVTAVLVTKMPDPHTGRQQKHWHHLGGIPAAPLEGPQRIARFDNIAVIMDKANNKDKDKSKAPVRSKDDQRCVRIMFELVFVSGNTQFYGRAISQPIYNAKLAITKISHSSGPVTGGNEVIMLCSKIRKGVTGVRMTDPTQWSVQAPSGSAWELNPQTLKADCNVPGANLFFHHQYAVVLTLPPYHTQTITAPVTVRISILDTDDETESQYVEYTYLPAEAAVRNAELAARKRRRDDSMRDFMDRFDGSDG
- protocol: protein-binding microarray (PBM); PBM: ~300 nM protein, 6 mM HEPES pH 7.8, 80 mM KCl, 0.5 mM EDTA, 0.5 mM EGTA, 6% glycerol, 35 ng/ul poly-dIdC, 1% milk, 1 h, room temperature; high values mean tight binding
- setup.conditions: dsDNA, one strand shown
experimental.readout: binding signal

input.sequence	val
CCGATTAACATCACCAAAATCCCTGATGTTAATCGGGTCTTGATTCGCTTGACGCTGCTG	1.36 z-score
CCGATTAACATCAGGGGTACCCCTGATGTTAATCGGGTCTTGATTCGCTTGACGCTGCTG	6.06 z-score
CCGATTAACATCACAACTTCCCCTGATGTTAATCGGGTCTTGATTCGCTTGACGCTGCTG	5.34 z-score
CCGATTAACATCACTACTTTCCCTGATGTTAATCGGGTCTTGATTCGCTTGACGCTGCTG	3.41 z-score

Now take the following sequence into account.
Which value of binding signal has been reported for CCGATTAACATCAGGCCACCCCCTGATGTTAATCGGGTCTTGATTCGCTTGACGCTGCTG in the records? 2.66 z-score

====

- target.or.system: GST-Co-NF-kB (Capsaspora owczarzaki, UniProt F1ARL5 200-546)
- Sequence: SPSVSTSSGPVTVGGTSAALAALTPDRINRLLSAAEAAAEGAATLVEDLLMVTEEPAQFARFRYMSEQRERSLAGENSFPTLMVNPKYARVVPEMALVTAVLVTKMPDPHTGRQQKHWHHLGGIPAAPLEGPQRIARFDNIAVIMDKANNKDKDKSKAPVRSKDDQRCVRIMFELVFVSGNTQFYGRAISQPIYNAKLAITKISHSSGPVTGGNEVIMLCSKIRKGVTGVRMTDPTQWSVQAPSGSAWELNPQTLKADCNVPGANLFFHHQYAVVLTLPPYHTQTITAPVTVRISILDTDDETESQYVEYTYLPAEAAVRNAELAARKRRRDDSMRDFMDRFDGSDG
- protocol: protein-binding microarray (PBM); PBM: ~300 nM protein, 6 mM HEPES pH 7.8, 80 mM KCl, 0.5 mM EDTA, 0.5 mM EGTA, 6% glycerol, 35 ng/ul poly-dIdC, 1% milk, 1 h, room temperature; Ap Aiptasia and Nv Nematostella (sea anemones) / Co Capsaspora / Aq Amphimedon (sponge) / Dm Drosophila / Hu human; RHD is the Rel homology domain; high values mean tight binding
- setup.conditions: dsDNA, one strand shown
experimental.readout: binding signal (z-score)
One number for each entry, in z-score.

A selection of reference data follows.
input.sequence	unit.abbrev	val
CCGATTAACATCAGGAAATCCCCTGATGTTAATCGGGTCTTGATTCGCTTGACGCTGCTG	z-score	4.46
CCGATTAACATCAAAAGAATCCCTGATGTTAATCGGGTCTTGATTCGCTTGACGCTGCTG	z-score	1.15
CCGATTAACATCAATGTCCCCCCTGATGTTAATCGGGTCTTGATTCGCTTGACGCTGCTG	z-score	8.35
CCGATTAACATCAGGGGGGAGAATGATGTTAATCGGGTCTTGATTCGCTTGACGCTGCTG	z-score	7.95
CCGATTAACATCAGGACTTCCCATGATGTTAATCGGGTCTTGATTCGCTTGACGCTGCTG	z-score	1.82
CCGATTAACATCAGAAACACCCCTGATGTTAATCGGGTCTTGATTCGCTTGACGCTGCTG	z-score	3.34
CCGATTAACATCAGGGAAGAACCTGATGTTAATCGGGTCTTGATTCGCTTGACGCTGCTG	z-score	1.42
CCGATTAACATCAGGGGAGTACCTGATGTTAATCGGGTCTTGATTCGCTTGACGCTGCTG	z-score	3.7
CCGATTAACATCAAGGGATCCCCTGATGTTAATCGGGTCTTGATTCGCTTGACGCTGCTG	z-score	4.18
CCGATTAACATCAGGGGATGTTATGATGTTAATCGGGTCTTGATTCGCTTGACGCTGCTG	z-score	3.17

Would you mind listing binding signal for each of the following sequences?
1. CCGATTAACATCACAGTACCCCCTGATGTTAATCGGGTCTTGATTCGCTTGACGCTGCTG
2. CCGATTAACATCAAGTACCCCCATGATGTTAATCGGGTCTTGATTCGCTTGACGCTGCTG

[3.67, 4.36]

Would you mind listing binding signal for each of the following sequences?
1. CCGATTAACATCAAATTCCCTTATGATGTTAATCGGGTCTTGATTCGCTTGACGCTGCTG
2. CCGATTAACATCAAGGAACCCCCTGATGTTAATCGGGTCTTGATTCGCTTGACGCTGCTG

1: 2.16; 2: 2.03

Would you mind listing binding signal for each of the following sequences?
1. CCGATTAACATCAGGGTTTTTTATGATGTTAATCGGGTCTTGATTCGCTTGACGCTGCTG
2. CCGATTAACATCACGAAATTCCCTGATGTTAATCGGGTCTTGATTCGCTTGACGCTGCTG
3. CCGATTAACATCAATTTCCCCCCTGATGTTAATCGGGTCTTGATTCGCTTGACGCTGCTG
4. CCGATTAACATCAGGAATTTCCCTGATGTTAATCGGGTCTTGATTCGCTTGACGCTGCTG

1.36
4.17
11.5
4.93
